Biological target: Mitogen-activated protein kinase kinase kinase 5 (Homo sapiens) (UniProt Q99683)
Experiment: Inhibition of ASK1 (unknown origin) at 500 uM using biotin-MBP as substrate after 20 mins by TR-FRET assay relative to control

cpd-smiles: CCn1cnc(NC(=O)C2CCC2)c1
sign-qualifier: <
inhibition, %: 10
//
cpd-smiles: CCn1cnc(NC(=O)c2cscn2)c1
sign-qualifier: =
inhibition, %: 75
//
cpd-smiles: CCn1cnc(NC(=O)c2ccco2)c1
sign-qualifier: =
inhibition, %: 35
//
cpd-smiles: CCn1cnc(NC(=O)c2ccccc2)c1
sign-qualifier: =
inhibition, %: 40
//
cpd-smiles: CCn1cnc(NC(=O)c2ccoc2)c1
sign-qualifier: =
inhibition, %: 51

* * *

Molecular target: CYP3A4 (Homo sapiens)
Sequence (P08684 whole entry): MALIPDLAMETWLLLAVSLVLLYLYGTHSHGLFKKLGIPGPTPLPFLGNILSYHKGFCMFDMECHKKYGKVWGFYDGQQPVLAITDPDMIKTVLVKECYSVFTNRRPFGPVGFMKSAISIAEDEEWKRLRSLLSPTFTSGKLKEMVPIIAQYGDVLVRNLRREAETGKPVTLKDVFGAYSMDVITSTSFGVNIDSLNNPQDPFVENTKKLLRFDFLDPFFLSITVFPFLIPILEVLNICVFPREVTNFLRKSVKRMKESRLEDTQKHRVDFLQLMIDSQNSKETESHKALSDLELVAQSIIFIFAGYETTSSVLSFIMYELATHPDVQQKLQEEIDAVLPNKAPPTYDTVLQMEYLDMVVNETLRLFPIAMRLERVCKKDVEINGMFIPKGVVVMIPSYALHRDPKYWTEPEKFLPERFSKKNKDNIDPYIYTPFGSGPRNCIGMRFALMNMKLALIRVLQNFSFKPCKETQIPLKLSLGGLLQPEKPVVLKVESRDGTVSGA
Assay: Inhibition of CYP3A4 (unknown origin) at 10 uM relative to control
Format: ADME

cpd-smiles: COCCn1cc(NC(=O)c2csc(-c3nncn3C(C)C)n2)cn1
uom: %
inhibition at 10 µM: 30

* * *

Target: Mitogen-activated protein kinase kinase kinase 5 (Homo sapiens, UniProt Q99683)
Sequence (Q99683 whole entry): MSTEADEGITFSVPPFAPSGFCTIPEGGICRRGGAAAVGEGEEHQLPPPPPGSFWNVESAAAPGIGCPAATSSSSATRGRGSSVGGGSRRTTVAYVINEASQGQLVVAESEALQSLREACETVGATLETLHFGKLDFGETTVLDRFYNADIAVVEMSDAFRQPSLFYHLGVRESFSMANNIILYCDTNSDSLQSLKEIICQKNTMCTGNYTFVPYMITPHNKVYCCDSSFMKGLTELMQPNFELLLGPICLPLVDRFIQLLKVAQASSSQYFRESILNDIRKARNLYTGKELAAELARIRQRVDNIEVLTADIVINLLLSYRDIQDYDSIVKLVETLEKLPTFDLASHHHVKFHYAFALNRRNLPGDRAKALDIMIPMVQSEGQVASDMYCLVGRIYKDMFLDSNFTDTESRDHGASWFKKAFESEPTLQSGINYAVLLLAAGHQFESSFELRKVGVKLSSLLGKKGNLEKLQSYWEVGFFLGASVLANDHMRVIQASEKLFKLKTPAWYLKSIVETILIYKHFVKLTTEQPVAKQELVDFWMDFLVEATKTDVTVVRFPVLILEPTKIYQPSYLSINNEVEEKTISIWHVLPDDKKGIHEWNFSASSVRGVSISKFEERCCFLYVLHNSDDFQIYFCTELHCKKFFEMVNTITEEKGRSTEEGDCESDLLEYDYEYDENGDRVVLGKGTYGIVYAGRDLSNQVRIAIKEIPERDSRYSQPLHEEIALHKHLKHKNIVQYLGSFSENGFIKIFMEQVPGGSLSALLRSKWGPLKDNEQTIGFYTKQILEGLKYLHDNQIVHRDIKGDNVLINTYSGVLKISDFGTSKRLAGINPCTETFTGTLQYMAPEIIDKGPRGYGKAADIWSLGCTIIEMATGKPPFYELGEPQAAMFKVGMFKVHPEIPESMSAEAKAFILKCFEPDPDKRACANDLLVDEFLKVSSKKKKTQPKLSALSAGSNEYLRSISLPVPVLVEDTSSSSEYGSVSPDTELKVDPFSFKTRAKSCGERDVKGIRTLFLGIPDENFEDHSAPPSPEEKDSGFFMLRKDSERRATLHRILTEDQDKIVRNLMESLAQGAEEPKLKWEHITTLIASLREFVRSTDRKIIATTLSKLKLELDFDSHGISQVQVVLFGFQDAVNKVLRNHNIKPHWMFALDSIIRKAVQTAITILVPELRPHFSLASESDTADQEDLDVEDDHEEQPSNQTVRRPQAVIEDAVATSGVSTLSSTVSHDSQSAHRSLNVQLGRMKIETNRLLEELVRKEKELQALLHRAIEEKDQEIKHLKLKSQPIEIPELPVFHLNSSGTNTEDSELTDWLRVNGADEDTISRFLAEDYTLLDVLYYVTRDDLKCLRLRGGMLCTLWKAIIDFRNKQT
Assay: Inhibition of ASK1 (unknown origin) assessed as reduction in JNK phosphorylation by cell based assay
pEC50: −log10 of the molar value.
Returns 1 (yes) if the recorded pEC50 is greater than or equal to 7, and 0 (no) otherwise.

cpd-smiles: COCCn1cc(NC(=O)c2csc(-c3nncn3C(C)C)n2)cn1
assigned-class: 1 (yes)
--
cpd-smiles: CCn1cc(NC(=O)c2csc(-c3nncn3C(C)C)n2)cn1
assigned-class: 0 (no)

* * *

Experiment: Intrinsic clearance in human liver microsomes
Format: ADME, microsome
Conditions: read-out: CLH

cpd-smiles: COCCn1cc(NC(=O)c2csc(-c3nncn3C(C)C)n2)cn1
uom: mL/min/kg
CLint scaled: 8.8

* * *

Biological target: UniProt:P00533
Sequence (P00533 whole entry, the tested form may be a part): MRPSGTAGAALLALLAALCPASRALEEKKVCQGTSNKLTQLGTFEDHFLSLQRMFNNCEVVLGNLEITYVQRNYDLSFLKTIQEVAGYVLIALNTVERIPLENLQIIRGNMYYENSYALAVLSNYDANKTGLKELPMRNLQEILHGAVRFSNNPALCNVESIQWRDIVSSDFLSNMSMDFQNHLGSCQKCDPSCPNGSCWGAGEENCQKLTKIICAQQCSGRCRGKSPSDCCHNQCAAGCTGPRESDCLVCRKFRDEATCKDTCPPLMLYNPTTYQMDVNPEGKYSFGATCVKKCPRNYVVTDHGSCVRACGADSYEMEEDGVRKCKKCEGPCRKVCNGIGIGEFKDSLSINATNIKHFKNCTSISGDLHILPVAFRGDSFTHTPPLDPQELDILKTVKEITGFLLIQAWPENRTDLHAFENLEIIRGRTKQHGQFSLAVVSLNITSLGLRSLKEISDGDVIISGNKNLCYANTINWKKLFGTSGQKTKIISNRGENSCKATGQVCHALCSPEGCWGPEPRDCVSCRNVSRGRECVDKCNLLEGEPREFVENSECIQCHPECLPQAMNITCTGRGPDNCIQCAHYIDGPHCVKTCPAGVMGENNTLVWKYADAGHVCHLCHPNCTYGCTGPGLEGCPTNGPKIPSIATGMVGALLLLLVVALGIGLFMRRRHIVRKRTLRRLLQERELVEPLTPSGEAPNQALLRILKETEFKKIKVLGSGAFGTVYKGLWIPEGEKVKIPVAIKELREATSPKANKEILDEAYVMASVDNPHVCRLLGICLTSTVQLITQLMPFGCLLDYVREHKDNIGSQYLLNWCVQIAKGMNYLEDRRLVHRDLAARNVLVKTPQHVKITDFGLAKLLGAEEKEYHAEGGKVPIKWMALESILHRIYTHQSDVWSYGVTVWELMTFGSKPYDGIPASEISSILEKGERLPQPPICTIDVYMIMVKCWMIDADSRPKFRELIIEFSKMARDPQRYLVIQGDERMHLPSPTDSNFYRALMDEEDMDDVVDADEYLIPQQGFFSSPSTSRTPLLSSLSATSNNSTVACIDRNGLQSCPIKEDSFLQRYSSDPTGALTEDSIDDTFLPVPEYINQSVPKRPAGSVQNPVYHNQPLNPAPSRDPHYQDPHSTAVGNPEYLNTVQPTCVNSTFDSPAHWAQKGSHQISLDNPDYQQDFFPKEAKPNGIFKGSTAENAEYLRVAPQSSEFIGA
Experiment: Inhibition of recombinant human GST-tagged EGFR cytoplasmic domain (668 to 1210 residues) expressed in baculovirus expression system
pIC50: −log10 of the molar value.

cpd-smiles: CC(C)(C)c1ccc(C(=O)Nc2cn3cc(-n4ccnc4)ccc3n2)cc1
pIC50: < 4.70
--
cpd-smiles: COCCn1cc(NC(=O)c2csc(-c3nncn3C(C)C)n2)cn1
pIC50: < 4.70

* * *

Target: CYP2C9 (Homo sapiens, UniProt P11712)
Sequence (P11712 whole entry): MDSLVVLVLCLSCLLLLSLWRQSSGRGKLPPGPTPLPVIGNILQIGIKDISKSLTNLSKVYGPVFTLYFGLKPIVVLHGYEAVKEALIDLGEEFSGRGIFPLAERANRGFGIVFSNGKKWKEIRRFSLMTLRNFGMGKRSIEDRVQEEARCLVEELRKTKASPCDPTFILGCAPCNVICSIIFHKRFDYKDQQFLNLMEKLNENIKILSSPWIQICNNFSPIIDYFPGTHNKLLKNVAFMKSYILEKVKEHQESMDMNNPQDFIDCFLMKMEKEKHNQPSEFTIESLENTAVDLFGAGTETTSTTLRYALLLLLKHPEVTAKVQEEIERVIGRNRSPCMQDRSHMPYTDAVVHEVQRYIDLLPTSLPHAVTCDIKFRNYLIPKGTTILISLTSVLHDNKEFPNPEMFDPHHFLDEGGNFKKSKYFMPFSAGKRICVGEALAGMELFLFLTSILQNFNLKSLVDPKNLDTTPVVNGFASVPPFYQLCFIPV
Experiment: Inhibition of CYP2C9 (unknown origin) at 10 uM relative to control
Format: ADME

cpd-smiles: COCCn1cc(NC(=O)c2csc(-c3nncn3C(C)C)n2)cn1
inhibition at 10 µM: 36%

* * *

Here, each record is paired with measured pIC50 data.
Molecular target: Glycogen synthase kinase-3 beta (Homo sapiens)
Sequence (P49841 whole entry): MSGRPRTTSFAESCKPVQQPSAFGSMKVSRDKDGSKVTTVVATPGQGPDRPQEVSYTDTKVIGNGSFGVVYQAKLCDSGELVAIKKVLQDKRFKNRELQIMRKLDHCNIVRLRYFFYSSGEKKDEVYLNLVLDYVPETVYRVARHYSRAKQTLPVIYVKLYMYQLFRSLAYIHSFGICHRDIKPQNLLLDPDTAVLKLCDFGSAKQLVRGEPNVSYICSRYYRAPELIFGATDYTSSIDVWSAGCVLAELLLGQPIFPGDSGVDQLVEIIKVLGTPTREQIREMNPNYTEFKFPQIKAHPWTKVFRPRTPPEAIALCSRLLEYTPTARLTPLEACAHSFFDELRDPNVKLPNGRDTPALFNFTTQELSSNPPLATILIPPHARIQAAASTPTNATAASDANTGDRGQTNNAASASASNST
Experiment: Inhibition of recombinant full length human His-tagged GSK3B expressed in baculovirus expression system
pIC50: −log10 of the molar value.
quantity-kind: pIC50

cpd-smiles: COCCn1cc(NC(=O)c2csc(-c3nncn3C(C)C)n2)cn1
assay-system: Glycogen synthase kinase-3 beta (Homo sapiens)
quantity-kind: pIC50
reported-result: 6.34
--
cpd-smiles: CC(C)(C)c1ccc(C(=O)Nc2cn3cc(-n4ccnc4)ccc3n2)cc1
assay-system: Glycogen synthase kinase-3 beta (Homo sapiens)
quantity-kind: pIC50
reported-result: 6.08

* * *

Target: Tyrosine-protein kinase ITK/TSK (Homo sapiens)
Sequence (Q08881 whole entry): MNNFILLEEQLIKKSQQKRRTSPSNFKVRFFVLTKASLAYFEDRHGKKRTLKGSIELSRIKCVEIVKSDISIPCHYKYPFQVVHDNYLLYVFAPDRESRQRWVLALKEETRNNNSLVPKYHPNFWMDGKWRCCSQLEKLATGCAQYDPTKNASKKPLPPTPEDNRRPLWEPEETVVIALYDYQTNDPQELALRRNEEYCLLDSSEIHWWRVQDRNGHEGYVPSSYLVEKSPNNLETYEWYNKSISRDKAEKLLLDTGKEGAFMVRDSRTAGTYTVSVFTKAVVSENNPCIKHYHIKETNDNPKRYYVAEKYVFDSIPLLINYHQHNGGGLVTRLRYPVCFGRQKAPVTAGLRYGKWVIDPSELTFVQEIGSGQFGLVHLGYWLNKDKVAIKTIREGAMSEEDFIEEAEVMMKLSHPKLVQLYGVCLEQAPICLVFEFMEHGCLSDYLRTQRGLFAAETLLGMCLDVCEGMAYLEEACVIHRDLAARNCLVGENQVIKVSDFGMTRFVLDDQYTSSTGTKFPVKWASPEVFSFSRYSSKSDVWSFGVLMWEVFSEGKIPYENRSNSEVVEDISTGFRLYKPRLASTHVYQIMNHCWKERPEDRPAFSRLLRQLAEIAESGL
Test: Inhibition of recombinant full length human GST-tagged ITK expressed in baculovirus expression system
Here, each record is paired with measured IC50 data.

cpd-smiles: COCCn1cc(NC(=O)c2csc(-c3nncn3C(C)C)n2)cn1
sign-qualifier: >
IC50 (µM): 20
//
cpd-smiles: CC(C)(C)c1ccc(C(=O)Nc2cn3cc(-n4ccnc4)ccc3n2)cc1
sign-qualifier: =
IC50 (µM): 5.5
